Value source: paper doi:10.1101/2021.06.18.449063v1

# system-under-test: wtCFTR; CFTR (Homo sapiens, UniProt P13569, R74A)
# Sequence (P13569 whole entry R74A): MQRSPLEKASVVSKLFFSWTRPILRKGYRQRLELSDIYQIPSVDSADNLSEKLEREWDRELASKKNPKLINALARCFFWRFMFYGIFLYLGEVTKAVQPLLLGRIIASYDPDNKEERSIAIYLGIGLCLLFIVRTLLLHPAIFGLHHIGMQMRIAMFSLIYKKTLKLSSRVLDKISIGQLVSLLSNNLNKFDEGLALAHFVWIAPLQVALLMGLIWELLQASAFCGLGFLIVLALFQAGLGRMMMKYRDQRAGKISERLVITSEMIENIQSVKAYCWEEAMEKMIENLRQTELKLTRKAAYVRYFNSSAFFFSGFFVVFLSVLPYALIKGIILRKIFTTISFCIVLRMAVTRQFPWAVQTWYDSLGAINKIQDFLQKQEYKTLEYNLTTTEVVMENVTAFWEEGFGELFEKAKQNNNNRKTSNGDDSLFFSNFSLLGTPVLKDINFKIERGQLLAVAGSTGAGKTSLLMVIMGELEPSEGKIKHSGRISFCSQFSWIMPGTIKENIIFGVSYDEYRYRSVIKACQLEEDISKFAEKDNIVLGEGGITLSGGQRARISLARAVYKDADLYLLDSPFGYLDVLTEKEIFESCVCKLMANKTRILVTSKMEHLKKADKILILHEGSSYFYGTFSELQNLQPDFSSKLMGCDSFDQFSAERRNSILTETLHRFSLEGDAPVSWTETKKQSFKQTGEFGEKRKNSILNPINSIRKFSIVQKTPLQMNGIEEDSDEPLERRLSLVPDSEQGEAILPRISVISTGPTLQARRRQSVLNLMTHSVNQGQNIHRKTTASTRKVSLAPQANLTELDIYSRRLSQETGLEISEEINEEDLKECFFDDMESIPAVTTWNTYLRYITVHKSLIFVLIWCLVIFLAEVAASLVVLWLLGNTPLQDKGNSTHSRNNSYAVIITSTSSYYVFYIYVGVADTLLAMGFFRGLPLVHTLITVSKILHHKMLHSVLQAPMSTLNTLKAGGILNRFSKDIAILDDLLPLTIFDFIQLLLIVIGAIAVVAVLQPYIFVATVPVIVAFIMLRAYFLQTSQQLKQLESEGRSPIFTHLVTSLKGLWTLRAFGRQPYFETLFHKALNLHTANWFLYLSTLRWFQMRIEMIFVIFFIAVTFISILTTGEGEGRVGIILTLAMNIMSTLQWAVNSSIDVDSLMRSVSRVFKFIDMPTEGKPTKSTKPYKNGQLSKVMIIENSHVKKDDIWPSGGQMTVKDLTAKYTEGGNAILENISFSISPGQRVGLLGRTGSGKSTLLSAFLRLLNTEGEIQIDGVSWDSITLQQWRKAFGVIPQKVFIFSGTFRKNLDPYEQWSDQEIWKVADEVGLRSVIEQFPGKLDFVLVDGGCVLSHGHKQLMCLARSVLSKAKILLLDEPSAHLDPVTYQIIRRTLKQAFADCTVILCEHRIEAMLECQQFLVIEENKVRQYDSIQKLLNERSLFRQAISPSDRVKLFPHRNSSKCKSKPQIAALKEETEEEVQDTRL
# assay-details: scintillation proximity competition assay vs [3H]lumacaftor
measured-metric: Ki (nM)
// return numeric value only (unit: nM, not printed)

// query Ki value for entry CC(C)(CO)c1cc2cc(NC(=O)C3(c4ccc5c(c4)OC(F)(F)O5)CC3)c(F)cc2n1C[C@@H](O)CO
410

---

# system-under-test: wtCFTR; CFTR (Homo sapiens)
# assay-details: quantitative binding measurement on purified CFTR
measured-metric: Kd (nM)
Give the quantity in nM, number only.

I have this molecule here, CC(C)(C)c1cc(C(C)(C)C)c(NC(=O)c2c[nH]c3ccccc3c2=O)cc1O [ivacaftor] , and I need its recorded Kd.
11.4
